Target: UniProt O14842
Experiment: FLIPR assay (agonist-induced calcium mobilization)
Details: Human FLIPR EC50, nM or % activation (EC50 values), GPR40/CHO NFAT BLA cells
measurement.type: EC50

1. CC#CC(CC(=O)O)c1ccc2c(c1)CCC(c1cc(-c3ccc(OC)nc3C)ccc1F)O2 (mixture of isomers) | 57 nM
2. CC#C[C@@H](CC(=O)O)c1ccc2c(c1)CCC(c1ccc(OCc3ccccc3)c(-c3c(C)cccc3C)c1)O2 (mixture of isomers) | 17 nM
3. CC#C[C@@H](CC(=O)O)c1ccc2c(c1)CCC(c1cc(-c3ccc(OC)nc3C)ccc1F)O2 (single isomer, unassigned) [Example 38] | 83 nM
4. CC#C[C@@H](CC(=O)O)c1ccc2c(c1)CCC(c1cccc(-c3c(C)noc3C)c1)O2 (single isomer, unassigned) [Example 39] | 113 nM
5. Cc1ccccc1-c1cc(F)c(C2CCc3cc4c(cc3O2)OC[C@H]4CC(=O)O)cc1-c1ccccc1C (mixture of isomers) | 51 nM
6. Cc1cccc(C)c1-c1cccc(C2CCc3cc(CCC(=O)O)ccc3O2)c1 (stereo not drawn) [Example 1] | 102 nM

====

The following molecules are listed with their measured pEC50 values.
Target: human GPR40 (Homo sapiens, UniProt O14842)
Sequence (O14842 whole entry): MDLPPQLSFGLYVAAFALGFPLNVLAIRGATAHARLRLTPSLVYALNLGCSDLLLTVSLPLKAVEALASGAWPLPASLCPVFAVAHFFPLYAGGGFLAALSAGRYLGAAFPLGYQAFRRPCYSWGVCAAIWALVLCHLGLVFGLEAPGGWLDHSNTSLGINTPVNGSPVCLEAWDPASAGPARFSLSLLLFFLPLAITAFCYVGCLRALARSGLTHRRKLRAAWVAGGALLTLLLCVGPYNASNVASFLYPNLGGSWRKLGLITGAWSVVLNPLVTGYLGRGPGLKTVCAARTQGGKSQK
Assay: Inositol Phosphate Turnover (IP1) Assay 2
Type: cell-based
Set-up: expressed in transfected cells
Conditions: HEK cells stably expressing human GPR40, Table 3, read-out: Human IP1 activity
pEC50: −log10 of the molar value.
measurement.type: pEC50

1) COc1ccc(F)c(-c2ccc(C3COc4ccc([C@H](C5CC5)[C@H](C)C(=O)O)c(F)c4O3)nc2)c1 (mixture of isomers) [Example 165] | 8.59
2) C[C@H](C(=O)O)[C@H](c1ccc2c(c1)O[C@H](C1CN([C@H](C)c3cc(C(F)(F)F)ccc3C(F)(F)F)C1)CO2)C1CC1 [Example 189] | 7.88
3) CC#C[C@@H](CC(=O)O)c1ccc2c(c1)OCC(c1ccc(-c3cc(OC)ccc3F)cc1)O2 (single isomer, unassigned) [Example 176] | 6.11
4) COc1ccc(F)c(-c2ccc(C3COc4ccc([C@@H](CC(=O)O)C5CC5)cc4O3)cc2)c1 (mixture of isomers) [Example 166] | 7.73
5) COc1ccc(F)c(-c2ccc(C3COc4ccc([C@H](C5CC5)[C@H](C)C(=O)O)c(F)c4O3)cc2)c1 (single isomer, unassigned) [Example 186] | 8.10

====

Target: human GPR40 (Homo sapiens, UniProt O14842)
Assay: Inositol Phosphate Turnover (IP1) Assay 2
Assay type: cell-based
Set-up: expressed in transfected cells
Settings: HEK cells stably expressing human GPR40, Table 2, read-out: Human IP1
pEC50: −log10 of the molar value.
# reported pEC50; entries follow
measurement.type: pEC50

1) COc1ccc(F)c(-c2ccc(C3CCc4ccc(C(CC(=O)O)C5CC5)cc4O3)cc2C2=CCCC2(C)C)c1 (single isomer, unassigned) [Example 101d] | 7.05
2) COc1ccc(F)c(-c2ccc(C3CCc4ccc([C@H](C5CC5)[C@H](C)C(=O)O)cc4O3)nc2C(OC)C(C)(C)C)c1 (single isomer, unassigned) [Example 135d] | 7.36
3) COc1ccc(F)c(-c2ccc(C3CCc4ccc([C@@H](CC(=O)O)C5CC5)cc4O3)cc2[C@@H]2CCCC2(C)C)c1 (mixture of isomers) | 8.21
4) COc1ccc(F)c(-c2ccc(C3CCc4ccc([C@@H](CC(=O)O)C5CC5)cc4O3)cn2)c1 (single isomer, unassigned) [Example 122a] | 7.06
5) COc1ccc(F)c(-c2ccc(C3CCc4ccc([C@@H](CC(=O)O)C5CC5)cc4O3)cc2[C@H]2CCCC2(C)C)c1 (mixture of isomers) | 7.18
6) COc1ccc(F)c(-c2ccc([C@@H]3CCc4ccc([C@@H](CC(=O)O)C5CCC5)cc4O3)cc2)c1 (single isomer, unassigned) | 7.10
